The measured values listed here are drawn from PubChem BioAssay (NCI).

Tested on: HOP-62 NSCLC
Experiment: NCI tumour cell line growth inhibition, 48 h
attribute_measured: GI50

q: Field: GI50 (HOP-62 NSCLC). Entry: `COc1ccc2nc(NC(=O)COc3cc(/C=C\c4cc(OC)c(OC)c(OC)c4)ccc3OC)sc2c1`
a: 23.3 µM

q: Same again, this time with `COC(=O)N1c2ccc3c(nc(Cc4ccccc4)n3[C@H]3CCC[C@H](C(=O)O)C3)c2CC[C@@H]1C`
a: 11.3 µM

q: Moving on to the next compound: `Cc1ccnc2[nH]c(-c3cccc4ccccc34)cc(=O)c12`
a: 7.39 µM

q: Let us now turn to `Cn1ccnc1C(=O)/C=C/c1ccc(C(=O)Nc2ccccc2F)cc1`
a: 4.27 µM

###

Tested on: SF-539 CNS
Test: NCI tumour cell line growth inhibition, 48 h
attribute_measured: TGI (µM)
Provide the reading as a plain figure in µM.

q: Item: `CCCCCCC/C(=N\N=C(N)N)c1ccc(O)cc1` Test system: SF-539 CNS Read-out: TGI Value: ?
a: 4.4

q: Queued: `CC(C)(C)c1cc(C(C)(C)C)c2c(c1O)OC(=O)CS2`
a: 12.5

q: Also need CCOC1c2cc(OC)c(OC)cc2-c2ccc3ccccc3c2N1C (configuration not stated) , thanks.
a: 55.6

###

System: KM12 colon
Experiment: NCI tumour cell line growth inhibition, 48 h
Assignment: determine reported TGI for the given molecules.
Write the number in µM without appending the unit.

q: Using the record for `O=C(Nc1ccc(-n2ccc3c(NC(=O)c4ccccc4)nccc32)cc1)c1cccc(C(F)(F)F)c1` , report its TGI.
a: 7.64

q: Please give the result for `COc1ccc2[nH]c(C(=O)N3CCN(C(=O)OCc4ccc5c(Br)cc(Br)c(O)c5n4)CC3)cc2c1` too.
a: 2.83

q: Next entry: `COc1cc2c3c(n(CCCN(C)C)c(=O)c2cc1OC)-c1cc2c(cc1C3=O)OCO2`
a: 2.68

q: Try `CN(C)c1ccc(Cc2cc(C(C)(C)C)cc(C(C)(C)C)c2O)cc1` next.
a: 24.6

q: Another molecule to check: `COc1ccc(NC(=O)c2sc3nc(C)c(C(=O)/C=C/c4ccccc4)cc3c2N)cc1`
a: 1.87

###

System: M14 melanoma
Experiment: NCI tumour cell line growth inhibition, 48 h
Answer each item with its documented TGI.

q: # lookup: TGI of `CCOC(=O)C(C)(C)Oc1ccc(Cl)cc1`
a: > 1000 µM

q: Then this compound: `CC(C)(C)c1cc(COc2cc(COc3ccc(-c4c5c(nc6c4CCc4ccc(-c7c8ccccc8nc8ccccc78)cc4-6)-c4cc(-c6c7ccccc7nc7ccccc67)ccc4CC5)cc3)cc(OCc3cc(C(C)(C)C)cc(C(C)(C)C)c3)c2)cc(C(C)(C)C)c1`
a: > 100 µM

q: Further, for CC(O)C(C(=O)O)N(CC1(O)OCC(O)C(O)C1O)N=O (stereo not given) ?
a: > 100 µM

q: Could you do the same for `CO/C=C(/C(=O)OC)c1ccccc1Oc1c(F)c(F)c(F)c(F)c1F` , please?
a: > 100 µM

q: // next record `O=[N+]([O-])[O][Sn]([O][Sn]([O][N+](=O)[O-])([c]1ccccc1)[c]1ccccc1)([c]1ccccc1)[c]1ccccc1`
a: > 100 µM

q: Next record, please: NCCOc1ncccc1/C=C1\C2C=CC=CC2C2C=CC(F)=CC12 (stereo not given)
a: 3.05 µM

q: // query: `COc1ccc(NC(=O)c2sc3nc(C)c(C(=O)/C=C/c4ccccc4)cc3c2N)cc1`
a: 10.3 µM

q: Then what about the compound `CCCCCCCCCCCCCCNc1nc(C(=O)OCC)ncc1-c1ccc(C(F)(F)F)cc1` ?
a: > 100 µM

q: Repeat with `Cc1nnc2sc(Cc3cnc(N)s3)nn12`
a: > 100 µM

q: Same again, this time with `COC(=O)c1ccc([C@H]2c3[nH]c4ccccc4c3C[C@H](C(=O)OC)N2C(=O)CCl)cc1`
a: 5.11 µM
